- test: WST-based cell viability assay in LNCaP cells
- protocol conditions: human, LNCaP cells, WST assay viability, AVG %, LNcaP, 0.1uM
measurement kind: viability at 0.1 µM (%)
Give bare numbers, in %.

compound	viability at 0.1 µM [%]
C=CC(C)(O)C(=O)N(C(=O)NCCOCCOCCNCC(O)COc1ccc(OCCc2ccccc2)c(OCCc2ccccc2)c1)c1cc(Cl)cc(Cl)c1 (centres unmarked) [VinclozolinM2-2204]	91.6

Note to self: viability at 0.1 µM recorded for CC(C)NCC(O)COc1ccc(OCCc2ccccc2)c(OCCc2ccccc2)c1 (centres unmarked) [YOK-2204] was 98.5

---

- test: in vitro
- protocol conditions: human, WST assay viability relative to con = 100
measurement kind: viability at 50 µM (%)
Give bare numbers, in %.

viability at 50 µM measured on C=CC1(C)OC(=O)N(c2cc(Cl)cc(Cl)c2)C1=O (stereo not shown) = 94.7
